- Protocol Notes: Tmax in Sprague-Dawley rat assessed as atazanavir level at 3 mg/kg equiv of atazanavir administered orally
- Type: ADME, organism-based
- Condition Notes: in vivo, po
Recorded Tmax for the following compounds

INSERT INTO measurements (compound, result) VALUES
  ('COC(=O)N[C@H](C(=O)N[C@@H](Cc1ccccc1)[C@H](CN(Cc1ccc(-c2ccccn2)cc1)NC(=O)[C@@H](NC(=O)OC)C(C)(C)C)OC(=O)OC(C)OC(=O)[C@H](C(C)C)N(C)C)C(C)(C)C (stereo in doubt; 21)', '36 min'),
  ('COC(=O)N[C@H](C(=O)N[C@@H](Cc1ccccc1)[C@H](CN(Cc1ccc(-c2ccccn2)cc1)NC(=O)[C@@H](NC(=O)OC)C(C)(C)C)OC(=O)OCOC(=O)[C@H](C(C)C)N(C)C)C(C)(C)C', '24 min'),
  ('COC(=O)N[C@H](C(=O)N[C@@H](Cc1ccccc1)[C@H](CN(Cc1ccc(-c2ccccn2)cc1)NC(=O)[C@@H](NC(=O)OC)C(C)(C)C)OC(=O)OC(C)OC(=O)[C@@H](N)C(C)C)C(C)(C)C (stereo in doubt; 18)', '48 min'),
  ('COC(=O)N[C@H](C(=O)N[C@@H](Cc1ccccc1)[C@H](CN(Cc1ccc(-c2ccccn2)cc1)NC(=O)[C@@H](NC(=O)OC)C(C)(C)C)OC(=O)OC(C)OC(=O)[C@H](C(C)C)N(C)C)C(C)(C)C (stereo in doubt; 22)', '48 min'),
  ('COC(=O)N[C@H](C(=O)N[C@@H](Cc1ccccc1)[C@H](CN(Cc1ccc(-c2ccccn2)cc1)NC(=O)[C@@H](NC(=O)OC)C(C)(C)C)OC(=O)OCOC(=O)[C@@H](C(C)C)N(C)C)C(C)(C)C', '30 min');

Moving on to the next compound.
*Q* Please give measured Tmax of the following entry: COC(=O)N[C@H](C(=O)N[C@@H](Cc1ccccc1)[C@H](CN(Cc1ccc(-c2ccccn2)cc1)NC(=O)[C@@H](NC(=O)OC)C(C)(C)C)OC(=O)OC(C)OC(=O)[C@@H](C(C)C)N(C)C)C(C)(C)C (stereo in doubt; 24)
*A* 30 min

* * *

The following compounds are shown together with reported solubility values.
- Protocol Notes: Solubility of compound in 0.1 N aqueous HCl buffer at pH 1
- Assay type: physicochemical
- Condition Notes: 0.1 N aqueous HCl buffer, read-out: solubility

Below are worked cases with known answers.
INSERT INTO measurements (compound, reported_metric, result) VALUES
  ('COC(=O)N[C@H](C(=O)N[C@@H](Cc1ccccc1)[C@H](CN(Cc1ccc(-c2ccccn2)cc1)NC(=O)[C@@H](NC(=O)OC)C(C)(C)C)OC(=O)OCOC(=O)[C@H](C(C)C)N(C)C)C(C)(C)C', 'solubility', '> 1200 µg/mL'),
  ('COC(=O)N[C@H](C(=O)N[C@@H](Cc1ccccc1)[C@H](CN(Cc1ccc(-c2ccccn2)cc1)NC(=O)[C@@H](NC(=O)OC)C(C)(C)C)OC(=O)OCOC(=O)[C@@H](C(C)C)N(C)C)C(C)(C)C', 'solubility', '> 1800 µg/mL'),
  ('COC(=O)N[C@H](C(=O)N[C@@H](Cc1ccccc1)[C@H](CN(Cc1ccc(-c2ccccn2)cc1)NC(=O)[C@@H](NC(=O)OC)C(C)(C)C)OC(=O)OC(C)OC(=O)[C@H](C(C)C)N(C)C)C(C)(C)C (stereo in doubt; 21)', 'solubility', '> 1900 µg/mL');

Now for another entry.
*Q* // Input: COC(=O)N[C@H](C(=O)N[C@@H](Cc1ccccc1)[C@H](CN(Cc1ccc(-c2ccccn2)cc1)NC(=O)[C@@H](NC(=O)OC)C(C)(C)C)OC(=O)OC(C)OC(=O)[C@@H](C(C)C)N(C)C)C(C)(C)C (stereo in doubt; 23) . Output its solubility only.
*A* > 1700 µg/mL

* * *

- Protocol Notes: Total AUC in Sprague-Dawley rat assessed as ratio of atazanavir to parent level at 3 mg/kg equiv of atazanavir administered orally
- Assay type: ADME, organism-based
- Condition Notes: in vivo, po
Below: a set of entries, each annotated with reported Ratio AUC.
A bare number is all that is needed in reply.

The following compounds have reported results that may help.
INSERT INTO assay_data (compound, result_number) VALUES
  ('COC(=O)N[C@H](C(=O)N[C@@H](Cc1ccccc1)[C@H](CN(Cc1ccc(-c2ccccn2)cc1)NC(=O)[C@@H](NC(=O)OC)C(C)(C)C)OC(=O)OCOC(=O)[C@@H](C(C)C)N(C)C)C(C)(C)C', 5.3),
  ('COC(=O)N[C@H](C(=O)N[C@@H](Cc1ccccc1)[C@H](CN(Cc1ccc(-c2ccccn2)cc1)NC(=O)[C@@H](NC(=O)OC)C(C)(C)C)OC(=O)OC(C)OC(=O)[C@@H](N)C(C)C)C(C)(C)C (stereo in doubt; 18)', 2.6),
  ('COC(=O)N[C@H](C(=O)N[C@@H](Cc1ccccc1)[C@H](CN(Cc1ccc(-c2ccccn2)cc1)NC(=O)[C@@H](NC(=O)OC)C(C)(C)C)OC(=O)OC(C)OC(=O)[C@H](C(C)C)N(C)C)C(C)(C)C (stereo in doubt; 21)', 5.7);

Now take the following compound into account.
*Q* Check the records and state Ratio AUC for COC(=O)N[C@H](C(=O)N[C@@H](Cc1ccccc1)[C@H](CN(Cc1ccc(-c2ccccn2)cc1)NC(=O)[C@@H](NC(=O)OC)C(C)(C)C)OC(=O)OC(C)OC(=O)[C@@H](C(C)C)N(C)C)C(C)(C)C (stereo in doubt; 24)
*A* 104.8

* * *

- Protocol Notes: Solubility of compound in 0.1 N aqueous HCl buffer at pH 1
- Assay type: physicochemical
- Condition Notes: buffer
Reported solubility values follow for various molecules

Consider the worked cases shown below.
INSERT INTO results (molecule, reported_metric, result) VALUES
  ('COC(=O)N[C@H](C(=O)N[C@@H](Cc1ccccc1)[C@H](CN(Cc1ccc(-c2ccccn2)cc1)NC(=O)[C@@H](NC(=O)OC)C(C)(C)C)OC(=O)OC(C)OC(=O)[C@H](C(C)C)N(C)C)C(C)(C)C (stereo in doubt; 22)', 'solubility', '> 1800 µg/mL'),
  ('COC(=O)N[C@H](C(=O)N[C@@H](Cc1ccccc1)[C@H](CN(Cc1ccc(-c2ccccn2)cc1)NC(=O)[C@@H](NC(=O)OC)C(C)(C)C)OC(=O)OC(C)OC(=O)[C@@H](N)C(C)C)C(C)(C)C (stereo in doubt; 20)', 'solubility', '> 3200 µg/mL'),
  ('COC(=O)N[C@H](C(=O)N[C@@H](Cc1ccccc1)[C@H](CN(Cc1ccc(-c2ccccn2)cc1)NC(=O)[C@@H](NC(=O)OC)C(C)(C)C)OC(=O)OC(C)OC(=O)[C@@H](N)C(C)C)C(C)(C)C (stereo in doubt; 18)', 'solubility', '> 1200 µg/mL');

*Q* Please report solubility for the following molecule: COC(=O)N[C@H](C(=O)N[C@@H](Cc1ccccc1)[C@H](CN(Cc1ccc(-c2ccccn2)cc1)NC(=O)[C@@H](NC(=O)OC)C(C)(C)C)OC(=O)OC(C)OC(=O)[C@@H](C(C)C)N(C)C)C(C)(C)C (stereo in doubt; 24)
*A* > 2600 µg/mL

* * *

- Protocol Notes: Half life in rat hepatocytes measured after 120 mins
- Assay type: ADME, cell-based, Hepatocyte
Reported Metric: half-life (min)
Number only, in min; omit the unit.

*Q* Specify measured half-life for COC(=O)N[C@H](C(=O)N[C@@H](Cc1ccccc1)[C@H](CN(Cc1ccc(-c2ccccn2)cc1)NC(=O)[C@@H](NC(=O)OC)C(C)(C)C)OC(=O)OC(C)OC(=O)[C@H](C(C)C)N(C)C)C(C)(C)C (stereo in doubt; 21) .
*A* 25

* * *

- Protocol Notes: Relative oral bioavailability in Sprague-Dawley rat assessed as atazanavir level at 3 mg/kg equiv of atazanavir
- Type: ADME, organism-based
- Condition Notes: in vivo
Reported Metric: F (%)
Hi! Could you send only the number? It should be in %, unit omitted.

Before answering, review these 3 worked examples.
INSERT INTO assay_data (molecule, reported_metric, value_units, result_number) VALUES
  ('COC(=O)N[C@H](C(=O)N[C@@H](Cc1ccccc1)[C@H](CN(Cc1ccc(-c2ccccn2)cc1)NC(=O)[C@@H](NC(=O)OC)C(C)(C)C)OC(=O)OCOC(=O)[C@H](C(C)C)N(C)C)C(C)(C)C', 'F', '%', 46),
  ('COC(=O)N[C@H](C(=O)N[C@@H](Cc1ccccc1)[C@H](CN(Cc1ccc(-c2ccccn2)cc1)NC(=O)[C@@H](NC(=O)OC)C(C)(C)C)OC(=O)OC(C)OC(=O)[C@@H](N)C(C)C)C(C)(C)C (stereo in doubt; 18)', 'F', '%', 53),
  ('COC(=O)N[C@H](C(=O)N[C@@H](Cc1ccccc1)[C@H](CN(Cc1ccc(-c2ccccn2)cc1)NC(=O)[C@@H](NC(=O)OC)C(C)(C)C)OC(=O)OC(C)OC(=O)[C@H](C(C)C)N(C)C)C(C)(C)C (stereo in doubt; 22)', 'F', '%', 103);

*Q* In one line, give reported F of the entry COC(=O)N[C@H](C(=O)N[C@@H](Cc1ccccc1)[C@H](CN(Cc1ccc(-c2ccccn2)cc1)NC(=O)[C@@H](NC(=O)OC)C(C)(C)C)OC(=O)OC(C)OC(=O)[C@@H](C(C)C)N(C)C)C(C)(C)C (stereo in doubt; 24) .
*A* 91
